These data points were gathered from the supplement of paper PMC3545927.

assayedTarget: furin, P09958;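 further: purified furin at 1:10 enzyme:substrate in 50 mM HEPES pH 7.5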
Sequence (P09958 whole entry): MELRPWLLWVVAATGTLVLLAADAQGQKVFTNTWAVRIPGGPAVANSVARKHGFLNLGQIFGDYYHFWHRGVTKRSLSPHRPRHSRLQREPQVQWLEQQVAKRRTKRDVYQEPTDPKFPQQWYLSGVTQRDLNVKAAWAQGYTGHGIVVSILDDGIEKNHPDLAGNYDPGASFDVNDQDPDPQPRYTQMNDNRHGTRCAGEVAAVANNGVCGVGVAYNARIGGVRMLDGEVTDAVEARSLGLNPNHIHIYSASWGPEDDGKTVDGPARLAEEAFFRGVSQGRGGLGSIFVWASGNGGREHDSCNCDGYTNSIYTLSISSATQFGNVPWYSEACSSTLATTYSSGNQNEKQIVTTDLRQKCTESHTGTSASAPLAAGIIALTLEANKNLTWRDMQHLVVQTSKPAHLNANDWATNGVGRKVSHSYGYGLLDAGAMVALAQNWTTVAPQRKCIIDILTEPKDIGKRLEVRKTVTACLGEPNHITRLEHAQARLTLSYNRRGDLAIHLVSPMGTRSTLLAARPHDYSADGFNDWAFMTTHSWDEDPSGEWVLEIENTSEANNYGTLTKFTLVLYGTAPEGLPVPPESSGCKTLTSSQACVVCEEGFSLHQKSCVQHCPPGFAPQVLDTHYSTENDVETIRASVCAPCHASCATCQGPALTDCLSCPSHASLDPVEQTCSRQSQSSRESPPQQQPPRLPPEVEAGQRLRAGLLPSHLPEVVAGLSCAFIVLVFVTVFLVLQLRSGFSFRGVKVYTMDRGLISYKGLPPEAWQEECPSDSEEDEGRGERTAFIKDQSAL
assaySummary: furin cleavage Z-score vs untreated control; higher = more cleavage, active = 3.5 or more, inactive = 1 or less, 8 variable residues between constant flanks
conditionNotes: 7.5 min
This is one part of the list. No count for the full screen is at hand.
Recorded measurements of furin cleavage Z-score, one per entry

Sample records with furin cleavage Z-score:
[[record]]
monomersequence = "CALLRRQIRTAGNASASA [FS-1642]"
observedproperty = "furin cleavage Z-score"
measvalue = "6.82 (active)"

[[record]]
monomersequence = "CATLRRYKRHAGNASASA [FS-964]"
observedproperty = "furin cleavage Z-score"
measvalue = "11.2 (active)"

[[record]]
monomersequence = "CASMVGNWAKAGNASASA [HC342]"
observedproperty = "furin cleavage Z-score"
measvalue = 1.34


Could you now look at the following sequence, please?
Asked: Recorded furin cleavage Z-score for CADQRPYCWHAGNASASA [HC401] , please?
Given back: 0.793 (inactive)
